Source listed as patent US6593362B2.

- subject.of.test: UniProt:P62937
- Sequence (P62937 whole entry): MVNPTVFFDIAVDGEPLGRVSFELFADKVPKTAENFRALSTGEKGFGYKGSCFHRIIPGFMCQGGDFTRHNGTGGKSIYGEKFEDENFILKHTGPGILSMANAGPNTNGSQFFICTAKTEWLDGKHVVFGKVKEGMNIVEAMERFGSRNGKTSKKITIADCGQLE
- method.description: biochemical
- condition.set: read-out: % Inhibition at 10 μM
readout.label: inhibition at 10 µM (%)

>>> val("COc1cccc(NC(=O)NC2CCCC(NC(=O)Nc3cccc(OC)c3)C2)c1 (stereo not drawn) [Compound 12]")
47.7
>>> val("NC(=O)c1ccccc1NC(=O)Nc1cc(NC(=O)Nc2ccccc2C(N)=O)c(Br)cc1Br [Compound 1]")
100
>>> val("O=C(NCc1cccc2ccccc12)Nc1cccc(NC(=O)NCc2cccc3ccccc23)c1 [Compound 21]")
100
>>> val("O=C(Nc1cccc(NC(=O)Nc2ccon2)c1)Nc1ccon1 [Compound 11]")
93
>>> val("O=C(Nc1cccc(S(=O)(=O)NC(c2ccccc2)c2ccccc2)c1)C(c1ccccc1)c1ccccc1 [Compound 17]")
99
>>> val("O=C(Nc1cccc(NC(=O)Nc2ccc(Br)cc2Br)c1)Nc1ccc(Br)cc1Br [Compound 29]")
89
>>> val("O=C(NCc1cccc(CNC(=O)Nc2ccc(Br)cc2Br)c1)Nc1ccc(Br)cc1Br [Compound 31]")
100
>>> val("Cc1ccc(NC(=O)N(Cc2ccccc2)Cc2ccccc2)cc1NC(=O)N(Cc1ccccc1)Cc1ccccc1 [Compound 4]")
100
>>> val("O=C(NCC1CCCC(CNC(=O)Nc2cc(Br)cc(Br)c2)C1)Nc1cc(Br)cc(Br)c1 (stereo not drawn) [Compound 26]")
100
>>> val("O=C(NCC1CCCC(CNC(=O)Nc2cc(Cl)cc(Cl)c2)C1)Nc1cc(Cl)cc(Cl)c1 (stereo not drawn) [Compound 25]")
100
>>> val("Cc1ccc(NC(=O)Nc2cccc(NC(=O)Nc3ccc(C)cc3C)c2)c(C)c1 [Compound 27]")
100
>>> val("CSc1ccc(Cl)cc1C(=O)Nc1cccc(NC(=O)c2cc(Cl)ccc2SC)c1 [Compound 6]")
100
>>> val("CN(C)c1ccc(NC(=O)Nc2cc(NC(=O)Nc3ccc(N(C)C)cc3)c(Br)cc2Br)cc1 [Compound 19]")
98
>>> val("O=S(=O)(Nc1cccc(OCCc2cccc3ccccc23)c1)c1cccc2ccccc12 [Compound 13]")
100
>>> val("O=C(Nc1cc(Cl)cc(Cl)c1)Nc1cccc(NC(=O)Nc2cc(Cl)cc(Cl)c2)c1 [Compound 28]")
100

---

IC50 listing for selected compounds.
- subject.of.test: UniProtKB P62937
readout.label: IC50

>>> val("COc1cccc(NC(=O)NC2CCCC(NC(=O)Nc3cccc(OC)c3)C2)c1 (stereo not drawn) [Compound 12]")
"9500 nM"
>>> val("O=S(=O)(Nc1cccc(OCCc2cccc3ccccc23)c1)c1cccc2ccccc12 [Compound 13]")
"830 nM"
>>> val("O=C(Nc1cccc(NC(=O)Nc2ccon2)c1)Nc1ccon1 [Compound 11]")
"4000 nM"
>>> val("O=C(Nc1cccc2ccccc12)NC1CCCC(NC(=O)Nc2cccc3ccccc23)C1 (stereo not drawn) [Compound 10]")
"4500 nM"
>>> val("O=C(Nc1cccc(S(=O)(=O)NC(c2ccccc2)c2ccccc2)c1)c1cc(Cl)cc(Cl)c1 [Compound 18]")
"520 nM"
>>> val("CN(C)c1ccc(NC(=O)Nc2cc(NC(=O)Nc3ccc(N(C)C)cc3)c(Br)cc2Br)cc1 [Compound 19]")
"2900 nM"
>>> val("O=C(Nc1ccc(I)cc1)Nc1cc(NC(=O)Nc2ccc(I)cc2)c(Br)cc1Br [Compound 3]")
"600 nM"
>>> val("Cc1ccc(NC(=O)N(Cc2ccccc2)Cc2ccccc2)cc1NC(=O)N(Cc1ccccc1)Cc1ccccc1 [Compound 4]")
"800 nM"
>>> val("O=C(Nc1cccc(S(=O)(=O)NC(c2ccccc2)c2ccccc2)c1)C(c1ccccc1)c1ccccc1 [Compound 17]")
"650 nM"
